Source listed as ChEMBL document CHEMBL1926569.

System: Talaromyces funiculosus
Experiment: Antifungal activity against Penicillium funiculosum ATCC 36839 after 72 hrs by serial dilution technique
Type: functional
Details: ATCC 36839, 72 h
# label = yes (1) if MIC < 40 µM else no (0)

Decide: MIC of CNc1nc(C)c(C(=O)/C=C/c2cccc(Br)c2)s1 strictly below 40 µM?
yes (1)

Similarly, CCNc1nc(C)c(C(=O)/C=C/c2cccc([N+](=O)[O-])c2)s1 ?
yes (1)

Similarly, c1ccc(-c2ccc(C(c3ccccc3)n3ccnc3)cc2)cc1 (configuration not stated) [BIFONAZOLE] ?
no (0)

Similarly, CCNc1nc(C)c(C(=O)/C=C/c2ccccc2Cl)s1 ?
yes (1)
